target: recombinant human Bcl-2 D103Y protein (Homo sapiens (Human), UniProt P10415, D103Y); test: Bcl-2-D103Y Biochemical Assay (TR-FRET); type: binding; settings: ratio of IC50
Sequence (P10415 whole entry D103Y): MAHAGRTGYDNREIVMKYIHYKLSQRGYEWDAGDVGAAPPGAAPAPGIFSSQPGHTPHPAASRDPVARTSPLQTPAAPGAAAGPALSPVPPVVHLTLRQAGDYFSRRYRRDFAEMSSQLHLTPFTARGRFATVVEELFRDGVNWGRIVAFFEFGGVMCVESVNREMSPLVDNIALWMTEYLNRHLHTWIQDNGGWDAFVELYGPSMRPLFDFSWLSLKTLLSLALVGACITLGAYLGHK
attribute.measured: Ratio of Bcl-2 D103Y/Bcl-2 WT

The cases that follow already have their Ratio of Bcl-2 D103Y/Bcl-2 WT on record.
[[record]]
compound = "COc1ccc(CN2CCN(C3CC4(CCN(c5ccc(C(=O)NS(=O)(=O)c6ccc(NC[C@H]7COCCO7)c([N+](=O)[O-])c6)c(Oc6cnc7[nH]ccc7c6)c5)CC4)C3)[C@H](c3ccccc3C(C)C)C2)cc1 (single isomer, unassigned)"
tgt = "recombinant human Bcl-2 D103Y protein (Homo sapiens (Human), UniProt P10415, D103Y)"
reported_value = 2.5

[[record]]
compound = "COc1cc(CN2CCN(C3CC4(C3)CN(c3ccc(C(=O)NS(=O)(=O)c5ccc(NC[C@H]6CC[C@](C)(O)CC6)c([N+](=O)[O-])c5)c(Oc5cnc6[nH]cc(F)c6c5)c3)C4)[C@H](c3ccccc3C(C)C)C2)cc2c1OCCCC2"
tgt = "recombinant human Bcl-2 D103Y protein (Homo sapiens (Human), UniProt P10415, D103Y)"
reported_value = 1.4


I'm hoping you can list Ratio of Bcl-2 D103Y/Bcl-2 WT for every compound here, please.
1. COc1cc(CN2CCN(C3CC4(C3)CN(c3ccc(C(=O)NS(=O)(=O)c5ccc(NC[C@H]6CC[C@](C)(O)CC6)c([N+](=O)[O-])c5)c(Oc5cnc6[nH]ccc6c5)c3)C4)[C@H](c3ccccc3C(C)C)C2)ccc1OC1CC1
2. CC(C)c1ccccc1C1CN(Cc2cccc3sccc23)CCN1C1CC2(CCN(c3ccc(C(=O)NS(=O)(=O)c4ccc(NC[C@H]5CC[C@](C)(O)CC5)c([N+](=O)[O-])c4)c(Oc4cnc5[nH]ccc5c4)c3)CC2)C1 (stereo partly shown)

(A)
0.8
4.4
